Sourced from PubChem BioAssay (Tox21)

Molecular target: Nuclear receptor subfamily 1 group I member 3 (Homo sapiens)
Test: qHTS assay to identify small molecule antagonists of the constitutive androstane receptor (CAR) signaling pathway (AID 1224838);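 note: HepG2 cells stably expressing hCAR with CYP2B6 luciferase reporter stimulated by CITCO; nearly all actives have a fitted effect of over 40% in size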
Conditions: HepG2-CYP2B6-hCAR luciferase, CITCO-stimulated, 24 h; series mostly up to 92.4 µM
Records with an inconclusive call do not appear. The source made the active and inactive calls. Calls come from the whole dose curve; as a rule, active = well fitted inhibition curve with a large enough effect in the repeat runs; inconclusive = weak or mixed curves, or effect the other way; inactive = no such curve, though single readings can be large or run the other way.

{"columns": ["COMPOUND", "outcome"],
 "data": [
  ["CCCCCCCCCOS(=O)(=O)O", "inactive"],
  ["CC(=O)OC[C@H]1O[C@@H](n2ncc(=O)[nH]c2=O)[C@H](OC(C)=O)[C@@H]1OC(C)=O", "inactive"],
  ["CCCCC(CC)CN1C(=O)C2C3C=CC(C3)C2C1=O (stereo not drawn)", "inactive"],
  ["CCCCCCCCCCCCCCOS(=O)(=O)O", "inactive"],
  ["C=CCOC(=O)CCC1CCCCC1", "inactive"],
  ["CC(C)CC(=O)C1C(=O)c2ccccc2C1=O", "inactive"],
  ["COC(=O)C1=C(C)NC(COC(N)=O)=C(C(=O)OC(C)C)C1c1cccc(Cl)c1Cl (stereo not drawn)", "inactive"],
  ["OCCNCc1ccccc1", "inactive"],
  ["COC(C)(C)CCO", "inactive"],
  ["Nc1cccc(S(=O)(=O)c2cccc(N)c2)c1", "inactive"],
  ["C=C(C)C(=O)OCCO", "inactive"],
  ["CCCCCCCCCCCCCCCCOS(=O)(=O)O", "inactive"],
  ["CCCCCCCCCCCCN1CCCCCC1=O", "inactive"]
]}
